molecular target: CRBN (Cereblon) (Homo sapiens, UniProt Q96SW2); construct: CRBN–DDB1; with DDB1; test: competitive FP displacement of BODIPY-labelled IMiD probe, without ENL YEATS; assay type: binding
Assay Endpoint: IC50 (nM)
Answer with a number only, understood to be in nM.

Which measured IC50 value corresponds to O=C(COc1cccc2c1C(=O)N(C1CCC(=O)NC1=O)C2=O)NCCOCCOCCNS(=O)(=O)Nc1cccc(-c2cn3cc(C(=O)NC4CCC4)ccc3n2)c1 (stereo not shown) ?
155
